Assign melting point to each entry below.

Please review the entries below; each comes with its answer.
Input: # get_value(readout='melting point', item= CC(C)c1ccc(N(Cc2ccc(N(C)C)cc2)C(=O)C2CCOc3cc(O)ccc32)cc1 (configuration not stated) )
Output: 173 °C

Input: # get_value(readout='melting point', item= `COc1ccc(S(=O)(=O)Nc2ccccc2NC(=O)c2cccc(O)c2)cc1` )
Output: 191 to 192 °C

Input: # get_value(readout='melting point', item= CC(=O)OCC1OC(N=[N+]=[N-])C(OC(C)=O)C(OC(C)=O)C1OC(C)=O (configuration not stated) )
Output: 52 to 53 °C

Input: # get_value(readout='melting point', item= CCCCCCCCCCOc1ccc(CC(C)NCC(O)c2cccc(Cl)c2)cc1 (configuration not stated) )
Output: 59 to 61 °C

Here are 7 compounds. What values of melting point were reported for them?
1. Brc1coc(-c2cn([C@H]3CN4CCC3CC4)nn2)c1
2. Fc1cc(CC2(Cc3ccnc(F)c3)c3cccnc3-c3sccc32)ccn1
3. COc1ccc(-c2cc3cc(F)c(F)cc3[nH]2)cc1NCc1cccc(C#N)c1
4. CC(C)N1C(CN2CCOCC2)=Cc2cc(S(N)(=O)=O)sc2S1(=O)=O
5. COC(=O)C(C)(C)Cc1c(SC(C)(C)C)c2cc(OC)ccc2n1Cc1ccc(Cl)cc1
6. CC(C)(C)NC(=O)C1(O)CC(C)(C)NC(C)(C)C1
7. O=C(CCl)Nc1ccc2c(c1NC(=O)c1cccs1)C(=O)c1ccccc1C2=O

Output:
1. 129 °C
2. 157 to 159 °C
3. 154 to 155 °C
4. 196 to 198 °C
5. 102 to 103 °C
6. 134 to 136 °C
7. 190 to 191 °C

Here are 3 compounds. What values of melting point were reported for them?
1. Fc1c2c(nc3cc(Cl)ccc13)CCCC2
2. COc1ccc(-c2cc(S(C)(=O)=O)nnc2-c2ccc(OC)cc2)cc1
3. CON(C)C(=O)c1ccc(F)cc1

Output:
["68 to 70 °C", "137 to 140 °C", "9 °C"]

Here are 5 compounds. What values of melting point were reported for them?
1. CNc1nc(NC)nc(-c2ccc(-c3ccccc3)cc2)n1
2. O=S(=O)(Nc1ccccc1)c1ccc(-c2cnn3c(O)ncnc23)cc1
3. O=C1Cc2ccccc2C(=O)N1c1ccc(Cl)cc1
4. Nc1cccc(Cl)c1O
5. OCC1N=c2c(ccc3c2=CC=N3)O1 (configuration not stated)

Output:
["198 to 200 °C", "274 to 277 °C", "178 to 180 °C", "113 to 114 °C", "169 to 172 °C"]

Here are 7 compounds. What values of melting point were reported for them?
1. CCCCCCCCOC(=O)NCCC(=O)O
2. COc1ccc(OC)c(CC(=O)CN2N=C(c3ccc(Cl)cc3)c3ccccc3-n3c(C)nnc32)c1
3. CC(=O)OCC(=O)NCc1nc(-c2csc(N=C(N)N)n2)cs1
4. CCN1CCCCC1CCc1ccccc1NC(=O)c1ccc(OC)cc1 (configuration not stated)
5. C(=C\c1cn(-c2ccccc2)nc1OCc1ccccc1)/c1cscn1
6. Cc1cc(F)ccc1Nc1nc(N2CCc3ccccc3C2C)c2cccc(OCCO)c2n1 (configuration not stated)
7. O=C(NCCO)c1cc(-c2cccc3cc(Cc4cccc(C(F)(F)F)c4)sc23)ncc1F

Output:
1. 70 to 72 °C
2. 217 to 218 °C
3. 182 to 183 °C
4. 136 to 138 °C
5. 101 to 102 °C
6. 120 to 122 °C
7. 110 to 111 °C

Here are 6 compounds. What values of melting point were reported for them?
1. CCCCCCCCCCCCCCCCC(CO)C(=O)O (configuration not stated)
2. Nc1nc2ccccc2c2c1nc1n2C(C2CCOCC2)COC1 (configuration not stated)
3. O=C(O)C(Cl)=C(Cl)C(=O)N(CCCl)CCCl
4. COc1cnc(C(=O)O)cc1OC1CCCC1
5. Nc1c(NCc2ccccc2)ccnc1Cl
6. Cc1cc(O)n2nc(CS)nc2n1

Output:
["62 to 67 °C", "240 to 243 °C", "107 to 110 °C", "184 to 185 °C", "176 to 179 °C", "215 °C"]

Here are 7 compounds. What values of melting point were reported for them?
1. Cc1cc(-c2c[nH]cn2)ccc1N=CNC#N
2. CCOC(=O)c1n[nH]cc1[N+](=O)[O-]
3. COc1ccc(CN(C)CCCc2ccc(NC(=O)c3cccc4c(=O)c5ccccc5[nH]c34)cc2)cc1
4. COc1cccc2c1CCC(n1cc[nH]c1=S)C2 (configuration not stated)
5. Cc1c(CC(C)C(=O)c2cn(C)c3ccccc23)ncn1C(c1ccccc1)(c1ccccc1)c1ccccc1 (configuration not stated)
6. Cc1ccc(C=NC2=NN(c3ccc4ccccc4c3)CC2)cc1
7. Cc1oc(-c2ccccc2)nc1COc1ccc(C(=O)c2ccc(O)cc2OCC(=O)O)cc1

Output:
1: 200 to 202 °C; 2: 128 to 130 °C; 3: 155 °C; 4: 233 to 235 °C; 5: 209 to 210 °C; 6: 184 to 186 °C; 7: 229 to 230 °C

Here are 3 compounds. What values of melting point were reported for them?
1. O=C(OCc1ccccc1)c1cc(-c2ccc(-c3ccc(C(F)(F)F)cc3)o2)ccc1OCc1ccccc1
2. N#Cc1ccc(C(=O)c2cc(C(F)(F)F)ccc2O)cc1
3. COC(=O)Cc1ccccc1OCc1ccc(N(Cc2nc(-c3ccccc3)oc2C)C(=O)OC(C)(C)C)cc1

Output:
1. 97 to 98 °C
2. 118 °C
3. 85 to 86 °C
